Data origin, for the record: patent US11242508B2

- Tested on: NK1-R
- Type: in vivo, rat
- measurement_context: naïve rats (and rats that received Blank-SAP followed by stem cells, not shown); 30 uL i.t. injection; read-out: IC50, tactile hyperalgesia
reported_endpoint: IC50

Give its IC50 value. Item: `FC(F)(F)c1cc(CO[C@H]2CCCN[C@H]2c2ccccc2)cc(C(F)(F)F)c1`
~300 µM

---

- Test system: NK1-R
- Assay type: in vivo, rat
- measurement_context: stem cell-restored rats; i.t. injection; read-out: IC50, tactile hyperalgesia
reported_endpoint: IC50

Give its IC50 value. Item: `FC(F)(F)c1cc(CO[C@H]2CCCN[C@H]2c2ccccc2)cc(C(F)(F)F)c1`
~30 µM
